- TARGET_OR_TEST_SYSTEM: KRAS G12D (Homo sapiens, UniProt P01116, G12D)
- Construct: aa1-188 KRAS WT, HRAS WT, NRAS WT, or KRAS containing the G12D
- Sequence (P01116 1-188 isoform P01116-2 G12D): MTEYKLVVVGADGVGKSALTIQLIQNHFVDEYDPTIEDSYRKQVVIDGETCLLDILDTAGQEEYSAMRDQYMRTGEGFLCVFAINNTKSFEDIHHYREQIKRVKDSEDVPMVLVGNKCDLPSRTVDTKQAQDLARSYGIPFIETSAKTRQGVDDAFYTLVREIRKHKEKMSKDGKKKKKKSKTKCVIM
- MEASUREMENT_NOTES: HTRF nucleotide exchange assay, KRAS G12D
- COND: HTRF nucleotide exchange assay (NEA), class symbols
Measured IC50 by item

Past entries and their recorded results:
CCc1c(F)ccc2cc(O)cc(-c3c(C)c4nc(OC[C@@]56CCCN5C[C@H](F)C6)nc(N5CCCn6nc(C(=O)N7CCOCC7)cc6C5)c4c4cn(C)nc34)c12 ... ≤ 10 nM
CCc1c(F)ccc2cc(O)cc(-c3c(F)c4nc(OCCC5CN(C)CCO5)nc(N5CCOCC(C)(O)C5)c4c4cn(C)nc34)c12 (centres unmarked) ... ≤ 10 nM
Cc1cc2[nH]ncc2c(-c2cc3nc(OC[C@@]45CCCN4C[C@H](F)C5)nc(N4CCCn5nc(C(=O)N(C)C)cc5C4)c3c3cn(C)nc23)c1C ... 10 to 100 nM
CCc1c(F)ccc2cc(O)cc(-c3c(F)c4nc(OC[C@@]56CCCN5C[C@H](F)C6)nc(N5CCCn6nc(C(=O)N7CCCC7)cc6C5)c4c4cn(C)nc34)c12 ... ≤ 10 nM

API: the following record is the query input.
Which IC50 is listed for CCc1c(F)ccc2cc(O)cc(-c3c(C)c4nc(OCC5(CF)COC5)nc(N5CC6CCC5CN6)c4c4cn(C)nc34)c12 (centres unmarked) ?
10 to 100 nM
